System: HLADH (Horse Liver Alcohol Dehydrogenase)
protocol notes: Kinetic constants for HLADH, spectrophotometric assay of NADH formation at 340 nm
Format: biochemical, Equus caballus
run parameters: pH 9.1, 100 mM CHES-buffer, ethanol = 100
property: Relative activity

Task: Give its Relative activity value. Item: NCCCO [3-Amino-propan-1-ol]
Result: 11%

----------
Test system: HLADH (Horse Liver Alcohol Dehydrogenase)
protocol notes: Kinetic constants for HLADH, spectrophotometric assay of NADH formation at 340 nm
Assay type: biochemical, Equus caballus
run parameters: pH 9.1, 100 mM CHES-buffer, compound as substrate
Below, each entry is listed alongside its reported Vmax.

The cases that follow already have their Vmax on record.
molecule | system tested | property | test value
C[C@H](N)CO [S-2-Amino-propan-1-ol] | HLADH (Horse Liver Alcohol Dehydrogenase) | Vmax | 0.21 µmol/min/mg
C[C@@H](N)CO [R-2-Amino-propan-1-ol] | HLADH (Horse Liver Alcohol Dehydrogenase) | Vmax | <0.0007 µmol/min/mg
NCCO [2-Amino-ethanol] | HLADH (Horse Liver Alcohol Dehydrogenase) | Vmax | <0.005 µmol/min/mg
CCO [Ethanol, reference compound] | HLADH (Horse Liver Alcohol Dehydrogenase) | Vmax | 1.5 µmol/min/mg
NC[C@@H](O)c1ccccc1 [S-2-Amino-1-phenyl-ethanol] | HLADH (Horse Liver Alcohol Dehydrogenase) | Vmax | 0.21 µmol/min/mg

Task: Short answer please: Vmax, HLADH (Horse Liver Alcohol Dehydrogenase), entry CC(O)CN (racemic) [1-Amino-propan-2-ol (rac), 1-Amino-propan-2-ol]
Result: 0 µmol/min/mg

Task: Same read-out for NC[C@H](O)c1ccccc1 [R-2-Amino-1-phenyl-ethanol] ?
Result: <0.002 µmol/min/mg

Task: Same read-out for NCCCO [3-Amino-propan-1-ol] ?
Result: 0.17 µmol/min/mg

----------
Below, each entry is listed alongside its reported Km.
System: HLADH (Horse Liver Alcohol Dehydrogenase)
protocol notes: Kinetic constants for HLADH, spectrophotometric assay of NADH formation at 340 nm
Assay type: biochemical, Equus caballus
run parameters: pH 9.1, 100 mM CHES-buffer, compound as substrate
The reply should be a number in mM, with the unit left off.

The cases that follow already have their Km on record.
compound | units | Km
C[C@H](N)CO | mM | 6.3
NCCCO | mM | 13
CCO [Ethanol, reference compound] | mM | 0.6

As a next step, examine the compound that follows.
Task: Short answer please: Km, HLADH (Horse Liver Alcohol Dehydrogenase), entry NC[C@@H](O)c1ccccc1
Result: 6.2

----------
system tested: AOX (alcohol oxidase) (Komagataella phaffii)
Assay type: biochemical
run parameters: pH 7.0, 100 mM MOPS-buffer, ethanol = 100
# true (1) = Relative activity below 0.2% (exclusive); false (0) = Relative activity at/above 0.2%

compound | category label
NCCCO [3-Amino-propan-1-ol] | true (1)
C[C@H](N)CO [S-2-Amino-propan-1-ol] | false (0)
CCO [Ethanol, reference compound] | false (0)
CC(O)CN (racemic) [1-Amino-propan-2-ol (rac), 1-Amino-propan-2-ol] | true (1)

Task: # strict comparison: is reported Relative activity < 0.2%? input = C[C@@H](N)CO [R-2-Amino-propan-1-ol]
Result: false (0)

----------
system tested: AOX (alcohol oxidase) (Komagataella phaffii, UniProt P04842)
Sequence (P04842 whole entry): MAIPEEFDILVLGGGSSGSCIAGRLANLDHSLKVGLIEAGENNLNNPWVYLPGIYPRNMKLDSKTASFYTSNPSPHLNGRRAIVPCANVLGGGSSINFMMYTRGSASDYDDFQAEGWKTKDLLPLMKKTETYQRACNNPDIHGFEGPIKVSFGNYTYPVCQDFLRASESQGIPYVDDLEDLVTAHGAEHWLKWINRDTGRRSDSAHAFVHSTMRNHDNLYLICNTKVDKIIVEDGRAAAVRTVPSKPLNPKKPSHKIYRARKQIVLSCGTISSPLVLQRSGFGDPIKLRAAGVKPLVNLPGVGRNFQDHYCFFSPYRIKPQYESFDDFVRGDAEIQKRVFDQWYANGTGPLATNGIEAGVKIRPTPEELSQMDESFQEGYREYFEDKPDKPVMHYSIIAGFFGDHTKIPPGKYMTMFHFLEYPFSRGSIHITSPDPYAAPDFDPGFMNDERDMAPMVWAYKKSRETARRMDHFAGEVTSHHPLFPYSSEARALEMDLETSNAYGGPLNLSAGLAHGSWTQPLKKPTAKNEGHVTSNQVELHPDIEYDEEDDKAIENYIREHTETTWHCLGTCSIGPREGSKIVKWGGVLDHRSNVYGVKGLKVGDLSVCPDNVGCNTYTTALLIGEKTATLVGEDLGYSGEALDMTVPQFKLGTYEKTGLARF
Format: biochemical
run parameters: pH 7.0, 100 mM MOPS-buffer, compound as substrate
Below, each entry is listed alongside its reported Vmax.
The reply should be a number in µmol/min/mg, with the unit left off.

structure smiles | Vmax (µmol/min/mg)
C[C@@H](N)CO | 0.10
C[C@H](N)CO | 0.37

As a next step, examine the compound that follows.
Task: Give its Vmax value. Item: NCCCO
Result: 0.021
